- test target: PfCDPK4 (Plasmodium falciparum, UniProt Q8IBS5)
- Sequence (Q8IBS5 whole entry): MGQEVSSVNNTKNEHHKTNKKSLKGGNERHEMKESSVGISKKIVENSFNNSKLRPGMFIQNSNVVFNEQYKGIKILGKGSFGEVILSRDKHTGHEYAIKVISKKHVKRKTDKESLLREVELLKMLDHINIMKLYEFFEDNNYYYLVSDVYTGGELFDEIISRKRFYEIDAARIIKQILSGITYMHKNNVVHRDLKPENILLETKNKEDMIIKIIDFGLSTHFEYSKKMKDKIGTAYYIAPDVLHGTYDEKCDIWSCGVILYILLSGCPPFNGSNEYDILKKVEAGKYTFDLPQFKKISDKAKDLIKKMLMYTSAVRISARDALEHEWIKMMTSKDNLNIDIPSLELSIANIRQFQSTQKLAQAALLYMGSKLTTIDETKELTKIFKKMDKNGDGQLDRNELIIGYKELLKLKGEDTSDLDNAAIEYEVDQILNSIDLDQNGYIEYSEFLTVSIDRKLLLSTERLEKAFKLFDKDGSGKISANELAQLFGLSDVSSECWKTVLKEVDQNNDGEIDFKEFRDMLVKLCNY
- assay summary: Kinase Glo luciferase enzyme activity assay, recombinant PfCDPK4
pIC50: −log10 of the molar value.
pIC50 by entry:

smiles text: CCOc1ccc2cc(-c3cn(CC4CC4)c4ncnc(N)c34)ccc2c1
pIC50: 6.43
//
smiles text: COc1ccc(-c2cn(CCN3CCOCC3)c3ncnc(N)c23)cc1OC
pIC50: < 5.70
//
smiles text: COc1ccccc1-c1cn(CC2CCN(C(C)=O)CC2)c2ncnc(N)c12
pIC50: < 5.70
//
smiles text: COc1ccccc1-c1cn(CC2CC2)c2ncnc(N)c12
pIC50: < 5.70
//
smiles text: COc1ccc2cc(-c3cn(CC4CCN(C(C)=O)CC4)c4ncnc(N)c34)ccc2c1
pIC50: 6.68
//
smiles text: CCOc1ccc2cc(-c3cn(CC4CCN(C(C)=O)CC4)c4ncnc(N)c34)ccc2c1
pIC50: 6.28
//
smiles text: COc1ccc(-c2cn(CC3CCN(C(C)=O)CC3)c3ncnc(N)c23)cc1OC
pIC50: < 5.70
//
smiles text: CCOCCOc1ccc2cc(-c3cn(CC4CCN(C(C)=O)CC4)c4ncnc(N)c34)ccc2c1
pIC50: < 5.70
//
smiles text: COc1ccc(-c2cn(CCC3CCN(C(=O)OC(C)(C)C)CC3)c3ncnc(N)c23)cc1OC
pIC50: < 5.70
//
smiles text: COc1ccc(-c2cn(CC3CC3)c3ncnc(N)c23)cc1OC
pIC50: < 5.70
//
smiles text: COc1ccccc1-c1cn(CCN2CCOCC2)c2ncnc(N)c12
pIC50: < 5.70

---

- assay summary: HeLa cell cytotoxicity assay
- Type: cell-based
- experimental parameters: human, HeLa cells

compound: COc1ccc(-c2cn(CC3CCN(C(C)=O)CC3)c3ncnc(N)c23)cc1OC [2 j]
viability at 48 h, 20 µM: 79.3%
--
compound: COc1ccccc1-c1cn(CCC2CCN(C(=O)OC(C)(C)C)CC2)c2ncnc(N)c12 [2 k]
viability at 48 h, 20 µM: 78.9%
--
compound: COc1ccc(-c2cn(CCN3CCOCC3)c3ncnc(N)c23)cc1OC [2 o]
viability at 48 h, 20 µM: 88%
--
compound: COc1ccccc1-c1cn(CC2CC2)c2ncnc(N)c12 [2 d]
viability at 48 h, 20 µM: 63.8%
--
compound: COc1ccc(-c2cn(CCC3CCN(C(=O)OC(C)(C)C)CC3)c3ncnc(N)c23)cc1OC [2 l]
viability at 48 h, 20 µM: 82.4%
--
compound: CCOCCOc1ccc2cc(-c3cn(CC4CCN(C(C)=O)CC4)c4ncnc(N)c34)ccc2c1 [2 h]
viability at 48 h, 20 µM: 94.4%
--
compound: CCOc1ccc2cc(-c3cn(CCN4CCOCC4)c4ncnc(N)c34)ccc2c1 [2 m]
viability at 48 h, 20 µM: 47%
--
compound: COc1ccc2cc(-c3cn(CC4CC4)c4ncnc(N)c34)ccc2c1 [2 a]
viability at 48 h, 20 µM: 93.6%
--
compound: COc1ccc(-c2cn(CC3CC3)c3ncnc(N)c23)cc1OC [2 e]
viability at 48 h, 20 µM: 88.8%
--
compound: COc1ccccc1-c1cn(Cc2ccccc2)c2ncnc(N)c12 [2 p]
viability at 48 h, 20 µM: 97%
--
compound: CCOc1ccc2cc(-c3cn(CC4CC4)c4ncnc(N)c34)ccc2c1 [2 b]
viability at 48 h, 20 µM: 79.8%
--
compound: COc1ccccc1-c1cn(CC2CCN(C(C)=O)CC2)c2ncnc(N)c12 [2 i]
viability at 48 h, 20 µM: 93.3%
--
compound: CCOCCOc1ccc2cc(-c3cn(CC4CC4)c4ncnc(N)c34)ccc2c1 [2 c]
viability at 48 h, 20 µM: 73%
--
compound: COc1ccc(-c2cn(Cc3ccccc3)c3ncnc(N)c23)cc1OC [2 q]
viability at 48 h, 20 µM: 95.4%
--
compound: COc1ccccc1-c1cn(CCN2CCOCC2)c2ncnc(N)c12 [2 n]
viability at 48 h, 20 µM: 112%
--
compound: CCOc1ccc2cc(-c3cn(CC4CCN(C(C)=O)CC4)c4ncnc(N)c34)ccc2c1 [2 g]
viability at 48 h, 20 µM: 92.8%
--
compound: COc1ccc2cc(-c3cn(CC4CCN(C(C)=O)CC4)c4ncnc(N)c34)ccc2c1 [2 f]
viability at 48 h, 20 µM: 92.1%
